assay_overview: in vitro
measurement_context: human, liver microsomes
Description: Clearance in human liver microsomes assessed per mg of protein at 1 uM after 30 mins by HPLC-MS analysis
assay_readout: microsomal CLint at 0.5 h, 1 µM (µL/min/mg)

COc1ccc(C2(c3cccc(-c4cccc(Cl)c4)c3)COC(N)=N2)cc1 (racemic) :: 39
COc1ccc(C2(c3cccc(-c4cccnc4)c3)COC(N)=N2)cc1 (racemic) :: 110
COc1ccc2c(c1)C1(COC(N)=N1)c1cc(-c3cncnc3)ccc1O2 (racemic) :: 80
CCCOc1ccc2c(c1)[C@]1(COC(N)=N1)c1cc(-c3cncnc3)ccc1O2 :: 55
COc1ccc(C2(c3cccc(-c4cncnc4)c3)COC(N)=N2)cc1 (racemic) :: 54

A. COc1ccc(C2(c3cccc(-c4cc(Cl)ccc4F)c3)COC(N)=N2)cc1 (racemic)
B. COc1ccc2c(c1)[C@]1(COC(N)=N1)c1cc(-c3cncnc3)ccc1O2
C. COc1ccc2c(c1)C1(COC(N)=N1)c1cc(-c3cccc(Cl)c3)ccc1O2 (centres undefined)
D. COc1ccc(C2(c3cccc(-c4cccnc4F)c3)COC(N)=N2)cc1 (racemic)
Exam item: Please give the order of these compounds when sorted by microsomal CLint at 0.5 h, 1 µM, largest value leading. Use the labels to give the requested order.
Marked response: C, D, B, A
(C: 390 µL/min/mg, D: 165 µL/min/mg, B: 97 µL/min/mg, A: 54 µL/min/mg)
